# credit: patent US20230146239A1

# assay.summary: Mouse pharmacokinetics, iv
# condition.label: female, CD-1, mouse, in vivo, 10 mg/kg
measurement.label: tmax (min)

>>> recorded_value("CN[C@H](CC(C)C)C(=O)N[C@H]1C(=O)N[C@@H](CC(N)=O)C(=O)N[C@H]2C(=O)NC3C(=O)N[C@H](C(=O)N[C@H](C(=O)NCCC[N+](C)(C)C)c4cc(O)cc(O)c4-c4cc3ccc4O)[C@H](O)c3ccc(c(Cl)c3)Oc3cc2cc(c3OC2OC(CO)C(O)[C@H](O)[C@@H]2O[C@H]2CC(C)(NCc3ccc(-c4ccc(Cl)cc4)cc3)[C@H](O)[C@H](C)O2)Oc2ccc(cc2Cl)[C@H]1O (single isomer, unassigned)")
4.8
